Data origin, for the record: patent US20050069522A1

system: HCV replicon (HCV 1b-377-neo replicon cells); test: HCV replicon cell line FRET assay; type: cell-based; details: Hepatitis C virus; HCV replicon cell line, FRET assay; read-out: Replicon Inhibition Range EC50
pEC50: −log10 of the molar value.
Answer each item with its documented pEC50.

Some compounds with known pEC50 results, for comparison:
# Compound, pEC50
data = [
    ("O=C(Nc1ccc(C2S/C(=N\\c3cccc(F)c3)N(Cc3ccco3)C2=O)cc1)[C@@H]1CCC(=O)N1C(=O)OCc1ccccc1 (stereo partly shown)", "6.00 to 7.00"),
    ("CN=C1SC(c2ccc(NC(=O)[C@H](C)NC(=O)OCc3ccccc3)cc2)C(=O)N1Cc1ccccn1 (stereo partly shown)", "6.00 to 7.00"),
    ("O=C(Nc1ccc(C2S/C(=N\\c3cccc(F)c3)N(CC3CCCO3)C2=O)cc1)[C@@H]1CCCN1C(=O)OCc1ccccc1 (stereo partly shown)", "> 7.00"),
]

Please go through the list and note pEC50 for each compound.
1. O=C(Nc1ccc(C2S/C(=N\c3cccc(F)c3)N(Cc3ccccn3)C2=O)cc1)[C@@H]1CCCN1C(=O)OCc1ccccc1 (stereo partly shown)
2. COc1ccc(/N=C2\SC(c3ccc(NC(=O)[C@H](C)NC(=O)OCc4ccccc4)cc3)C(=O)N2Cc2ccco2)cc1F (stereo partly shown)
3. CC(C)/N=C1\SC(c2ccc(NC(=O)[C@H](C)NC(=O)C(c3ccccc3)c3ccccc3)cc2)C(=O)N1Cc1ccccn1 (stereo partly shown)
4. O=C(Nc1ccc(C2S/C(=N\c3ccc(N4CCOCC4)cc3)N(Cc3ccccn3)C2=O)cc1)[C@@H]1CCCN1C(=O)Cc1ccccc1 (stereo partly shown)
5. Cc1cnc(CN2C(=O)C(c3ccc(NC(=O)[C@H](C)NC(=O)OCc4ccccc4)cc3)S/C2=N\c2ccc(N3CCOCC3)cc2)cn1 (stereo partly shown)
6. CC(C)/N=C1\SC(c2ccc(NC(=O)[C@H](C)NC(=O)[C@@H](C)c3ccccc3)cc2)C(=O)N1Cc1ccccn1 (stereo partly shown)

1. > 7.00
2. 6.00 to 7.00
3. > 7.00
4. > 7.00
5. > 7.00
6. 6.00 to 7.00

Please go through the list and note pEC50 for each compound.
1. C[C@H](NC(=O)OCc1ccccc1)C(=O)Nc1ccc(C2S/C(=N\c3cc(F)cc(F)c3)N(Cc3ccco3)C2=O)cc1 (stereo partly shown)
2. C[C@H](NC(=O)OCc1ccccc1)C(=O)Nc1ccc(C2S/C(=N\c3cccc(F)c3)N(CCc3cccs3)C2=O)cc1 (stereo partly shown)
3. CO[C@H](C(=O)N[C@@H](C)C(=O)Nc1ccc(C2S/C(=N\C(C)C)N(Cc3ccccn3)C2=O)cc1)c1ccccc1 (stereo partly shown)
4. O=C(Nc1ccc(C2S/C(=N\c3ccc(N4CCOCC4)cc3)N(Cc3ccccn3)C2=O)cc1)[C@@H]1CCCN1C(=O)C(F)c1ccccc1 (stereo partly shown)

["6.00 to 7.00", "6.00 to 7.00", "> 7.00", "> 7.00"]

====

test system: HCV replicon (HCV 1b-377-neo replicon cells); test: HCV replicon cell line FRET assay; type: cell-based; conditions: Hepatitis C virus; HCV replicon cell line, FRET assay; read-out: Replicon Inhibition Range EC50
Measured metric: EC50

# Molecule, Measurement
rows = [
    ("O=C(Nc1ccc(C2S/C(=N\\c3cccnc3)N(Cc3cccc(F)c3)C2=O)cc1)[C@@H]1CCCN1C(=O)Cc1ccccc1 (stereo partly drawn)", "< 100 nM"),
    ("O=C(Nc1ccc(C2S/C(=N\\c3ccc(N4CCOCC4)cc3)N(Cc3ccncc3)C2=O)cc1)[C@@H]1CCCN1C(=O)OCc1ccccc1 (stereo partly drawn)", "< 100 nM"),
    ("O=C(Nc1ccc(C2S/C(=N\\c3cccc(Cl)c3)N(Cc3ccco3)C2=O)cc1)[C@@H]1CCCN1C(=O)OCc1ccccc1 (stereo partly drawn)", "100 to 1000 nM"),
    ("C[C@H](NC(=O)OCc1ccccc1)C(=O)Nc1ccc(C2S/C(=N\\c3ccc(F)c(C(F)(F)F)c3)N(Cc3ccco3)C2=O)cc1 (stereo partly drawn)", "1000 to 5000 nM"),
    ("COc1ccc(CCN2C(=O)C(c3ccc(NC(=O)[C@@H]4CCCN4C(=O)OCc4ccccc4)cc3)S/C2=N\\c2cccc(F)c2)cc1OC (stereo partly drawn)", "1000 to 5000 nM"),
]

Which EC50 value is on record for Cc1cnc(CN2C(=O)C(c3ccc(NC(=O)[C@@H]4CCC(=O)N4C(=O)OCc4ccccc4)cc3)S/C2=N\c2ccc(N3CCOCC3)cc2)cn1 (stereo partly drawn) ? < 100 nM

====

conditions: human
Measured metric: CC50 at 72 h

# Compound, Measurement
measured = [
    ("C[C@H](NC(=O)OCc1ccccc1)C(=O)Nc1ccc(C2S/C(=N\\c3cccc(F)c3)N(Cc3ccco3)C2=O)cc1 (some centres unmarked)", "> 5 µM"),
]

Which CC50 at 72 h value is on record for C[C@H](NC(=O)Cc1ccccc1)C(=O)Nc1ccc(C2S/C(=N\c3cccc(F)c3)N(Cc3ccco3)C2=O)cc1 (some centres unmarked) ? > 5 µM

====

tested on: HCV replicon (HCV 1b-377-neo replicon cells); assay: HCV replicon cell line FRET assay; type: cell-based; conditions: Hepatitis C virus; HCV replicon cell line, FRET assay; read-out: Replicon Inhibition Range EC50
pEC50: −log10 of the molar value.
Answer each item with its documented pEC50.

Some compounds with known pEC50 results, for comparison:
# Compound, Measurement
measured = [
    ("C[C@H](NC(=O)OCc1ccccc1)C(=O)Nc1ccc(C2S/C(=N\\c3cccc(F)c3)N(Cc3ccc(F)c(F)c3F)C2=O)cc1 (stereo partly drawn)", "5.30 to 6.00"),
    ("O=C(Nc1ccc(C2S/C(=N\\c3cccc4ccncc34)N(Cc3ccco3)C2=O)cc1)[C@@H]1CCCN1C(=O)OCc1ccccc1 (stereo partly drawn)", "> 7.00"),
]

Please go through the list and note pEC50 for each compound.
1. CC(C)/N=C1\SC(c2ccc(NC(=O)[C@H](C)NC(=O)Cc3ccccc3)cc2)C(=O)N1Cc1ccccn1 (stereo partly drawn)
2. O=C(Nc1ccc(C2S/C(=N\c3cccc(F)c3)N(CCc3cccs3)C2=O)cc1)[C@@H]1CCCN1C(=O)OCc1ccccc1 (stereo partly drawn)
3. O=C(Nc1ccc(C2S/C(=N\c3ccc(N4CCOCC4)cc3)N(Cc3ccccn3)C2=O)cc1)[C@@H]1CCC(=O)N1C(=O)OCc1ccccc1 (stereo partly drawn)
4. C[C@@H](C(=O)Nc1ccc(C2S/C(=N\c3ccc(N4CCOCC4)cc3)N(Cc3ccccn3)C2=O)cc1)N(C)C(=O)OCc1ccccc1 (stereo partly drawn)

> 7.00
5.30 to 6.00
> 7.00
6.00 to 7.00

====

tested on: HCV replicon (HCV 1b-377-neo replicon cells); assay: HCV replicon cell line FRET assay; assay type: cell-based; settings: Hepatitis C virus; HCV replicon cell line, FRET assay; read-out: Replicon Inhibition Range EC50
Answer each item with its documented EC50.

Some molecules with known EC50 results, for comparison:
# Molecule, EC50
records = [
    ("O=C(Nc1ccc(C2S/C(=N\\c3ccc(N4CCOCC4)cc3)N(Cc3ccccn3)C2=O)cc1)[C@@H]1CCC(=O)N1C(=O)C(c1ccccc1)c1ccccc1 (stereo partly drawn) [Compound 113]", "100 to 1000 nM"),
    ("O=C(Nc1ccc(C2S/C(=N\\c3ccc(N4CCOCC4)cc3)N(Cc3ccccn3)C2=O)cc1)[C@@H]1CCCN1C(=S)NCc1ccccc1 (stereo partly drawn) [Compound 136]", "< 100 nM"),
    ("C[C@H](NC(=O)OCc1ccccc1)C(=O)Nc1ccc(C2S/C(=N\\c3cccc(Cl)c3)N(Cc3ccco3)C2=O)cc1 (stereo partly drawn) [Compound 54]", "100 to 1000 nM"),
    ("C[C@@H](C(=O)N1CCC[C@H]1C(=O)Nc1ccc(C2S/C(=N\\c3ccc(N4CCOCC4)cc3)N(Cc3ccccn3)C2=O)cc1)c1ccccc1 (stereo partly drawn) [Compound 115]", "< 100 nM"),
    ("COc1ccc(/N=C2\\SC(c3ccc(NC(=O)[C@@H]4CCCN4C(=O)OCc4ccccc4)cc3)C(=O)N2Cc2ccco2)cn1 (stereo partly drawn) [Compound 44]", "100 to 1000 nM"),
]

Below: the item to evaluate.
Which EC50 value is on record for C[C@H](NC(=O)CCc1ccccc1)C(=O)Nc1ccc(C2S/C(=N\c3cccc(F)c3)N(Cc3ccco3)C2=O)cc1 (stereo partly drawn) [Compound 125] ? 1000 to 5000 nM

====

tested on: HCV replicon (HCV 1b-377-neo replicon cells); test: HCV replicon cell line FRET assay; type: cell-based; settings: Hepatitis C virus; HCV replicon cell line, FRET assay; read-out: Replicon Inhibition Range EC50
pEC50: −log10 of the molar value.
Measured metric: pEC50

Some compounds with known pEC50 results, for comparison:
# Compound, Measured metric, Measurement
data = [
    ("COc1ccc(CCN2C(=O)C(c3ccc(NC(=O)[C@H](C)NC(=O)OCc4ccccc4)cc3)S/C2=N\\c2cccc(F)c2)cc1OC (stereo partly drawn)", "pEC50", "5.30 to 6.00"),
    ("O=C(Nc1ccc(C2S/C(=N\\c3ccc(N4CCOCC4)cc3)N(Cc3ccco3)C2=O)cc1)[C@@H]1CCCN1C(=O)OCc1ccccc1 (stereo partly drawn)", "pEC50", "> 7.00"),
    ("CCOC(=O)/N=C1\\SC(c2ccc(NC(=O)[C@H](C)NC(=O)OCc3ccccc3)cc2)C(=O)N1Cc1cccnc1 (stereo partly drawn)", "pEC50", "> 7.00"),
    ("C[C@H](NC(=O)OCc1ccccc1)C(=O)Nc1ccc(C2S/C(=N\\c3ccc(N4CCOCC4)cc3)N(Cc3ccccn3)C2=O)cc1 (stereo partly drawn)", "pEC50", "> 7.00"),
    ("O=C(Nc1ccc(C2S/C(=N\\c3ccc(N4CCOCC4)cc3)N(Cc3ccccn3)C2=O)cc1)[C@@H]1CCCN1S(=O)(=O)Cc1ccccc1 (stereo partly drawn)", "pEC50", "5.30 to 6.00"),
]

Below: the item to evaluate.
Which pEC50 value is on record for O=C(Nc1ccc(C2S/C(=N\c3ccc(N4CCOCC4)cc3)N(Cc3ccccn3)C2=O)cc1)[C@@H]1CCCN1C(=O)Cc1ccc(C(F)(F)F)cc1 (stereo partly drawn) ? 5.30 to 6.00
